B1: library; numbered along this chain (parent)
chain: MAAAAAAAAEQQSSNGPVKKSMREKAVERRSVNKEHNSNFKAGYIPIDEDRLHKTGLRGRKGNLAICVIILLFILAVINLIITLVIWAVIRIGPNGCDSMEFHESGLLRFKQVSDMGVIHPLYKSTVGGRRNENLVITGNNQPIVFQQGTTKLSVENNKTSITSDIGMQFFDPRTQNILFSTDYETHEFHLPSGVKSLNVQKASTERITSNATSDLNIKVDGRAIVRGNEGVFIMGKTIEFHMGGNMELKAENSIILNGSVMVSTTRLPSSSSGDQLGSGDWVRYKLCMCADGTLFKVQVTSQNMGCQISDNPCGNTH

variants of: B1; assay: SGCB cell-surface expression functional score (HA stain, bin4 vs bin1, normalised to synonymous) (log10 ratio); higher = more cell-surface SGCB (functional)
resultType: SGCB cell-surface expression functional score (log10)
# answer = number (no unit)

For orientation, consider the following solved cases.
{"mutationLabel": "V298N", "number": -0.06}
{"mutationLabel": "F170K", "number": -0.63}
{"mutationLabel": "A6Q", "number": 0.69}
{"mutationLabel": "N15S", "number": -0.02}
{"mutationLabel": "N132L", "number": -0.16}

Per the record, V263I has SGCB cell-surface expression functional score (log10) of 0.77

Per the record, T83R has SGCB cell-surface expression functional score (log10) of -0.49

Per the record, G56H has SGCB cell-surface expression functional score (log10) of 0.15

Per the record, Y123S has SGCB cell-surface expression functional score (log10) of 0.68

Per the record, T213Q has SGCB cell-surface expression functional score (log10) of 0.13

Per the record, P269H has SGCB cell-surface expression functional score (log10) of 0.32

Per the record, Q112Y has SGCB cell-surface expression functional score (log10) of -0.7

Per the record, G43K has SGCB cell-surface expression functional score (log10) of 0.2

Per the record, V68K has SGCB cell-surface expression functional score (log10) of 0

Per the record, C67V has SGCB cell-surface expression functional score (log10) of 0.28

These entries and their values trace back to the supplement of paper PMC10266784.
